# Test system: biotinyl-Ile-oxazolone
# EXPERIMENT NOTES: self-aminoacylation, catalytic enhancement (BIO) (fold over background); higher = more active; k-Seq, kA / k0A0; sequences stand for … in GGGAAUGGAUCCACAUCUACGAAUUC…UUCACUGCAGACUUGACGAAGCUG
Variants at the floor of the assay were thinned out.
QUANTITY: self-aminoacylation
Give bare numbers.

> print(dat)
                            sequence.record  readout.value
1  AUUCUCCUAGGUCAUCGGGGG [Fam2.2 aminoacylation ribozyme variant]            2.7
2  AGGUUUGCUAGUAGUCGCAAG [Fam3.1 aminoacylation ribozyme variant]          0.918
3  AUUCUCCUAGGGCAUCGGGUG [Fam2.2 aminoacylation ribozyme variant]           2.92
4  AUUACCCUCGUAAUCGAGUGA [Fam2.1 aminoacylation ribozyme variant]           6.62

# input for lookup
I am curious: what self-aminoacylation value has been reported for CUACUUCAAACAUUCGGUCUA [Fam1A.1 aminoacylation ribozyme variant] ?
1.03
